Ref: ChEMBL document CHEMBL1149831

- Tested on: U-118-MG
- assay summary: Cytotoxicity against human U118Mg cells after 72 hrs by MTT assay
- Assay type: functional, cell-based
Reported log10(IC50) is given for each of the following molecules.
endpoint: log10(IC50) (log10 of the value in µM)

1. O=c1n(-c2ccccc2)nc(-c2nc3ccccc3[nH]2)c2nc3ccccc3n12 ... 1.08
2. CCOC(=O)n1c(-c2nn(-c3ccc(OC)cc3)c(=O)n3c2nc2ccccc23)nc2ccccc21 ... 1.73
3. CCOC(=O)n1c(-c2nn(-c3ccccc3)c(=O)n3c2nc2ccccc23)nc2ccccc21 ... 1.25
4. CCOC(=O)n1c(-c2nn(-c3ccc([N+](=O)[O-])cc3)c(=O)n3c2nc2ccccc23)nc2ccccc21 ... 0.79
5. Cc1ccc(NN=C(c2nc3ccccc3[nH]2)c2nc3ccccc3[nH]2)cc1 ... 2.40
6. CCOC(=O)n1c(-c2nn(-c3ccc(C)cc3)c(=O)n3c2nc2ccccc23)nc2ccccc21 ... 2.17
7. COc1ccc(NN=C(c2nc3ccccc3[nH]2)c2nc3ccccc3[nH]2)cc1 ... 2.40
8. COc1ccc(-n2nc(-c3nc4ccccc4[nH]3)c3nc4ccccc4n3c2=O)cc1 ... 1.00
9. Cc1ccc(-n2nc(-c3nc4ccccc4[nH]3)c3nc4ccccc4n3c2=O)cc1 ... 1.25
10. O=[N+]([O-])c1ccc(NN=C(c2nc3ccccc3[nH]2)c2nc3ccccc3[nH]2)cc1 ... 2.40

====

- System: K562
- assay summary: Cytotoxicity against human K562-Tax cells after 72 hrs by MTT assay
- Format: functional, cell-based
- measurement parameters: K562, 72 h
pIC50: −log10 of the molar value.
Please note: y applies when pIC50 is 4 or greater, and n applies otherwise.

1) Clc1ccc(NN=C(c2nc3ccccc3[nH]2)c2nc3ccccc3[nH]2)cc1 ... n
2) CCOC(=O)n1c(-c2nn(-c3ccc(OC)cc3)c(=O)n3c2nc2ccccc23)nc2ccccc21 ... y
3) CCOC(=O)n1c(-c2nn(-c3ccc(Cl)cc3)c(=O)n3c2nc2ccccc23)nc2ccccc21 ... y
4) CCOC(=O)n1c(-c2nn(-c3ccccc3)c(=O)n3c2nc2ccccc23)nc2ccccc21 ... y
5) Cc1ccc(-n2nc(-c3nc4ccccc4[nH]3)c3nc4ccccc4n3c2=O)cc1 ... y
